- assayed_system: UniProt P0AD68
- Sequence (P0AD68 1-577): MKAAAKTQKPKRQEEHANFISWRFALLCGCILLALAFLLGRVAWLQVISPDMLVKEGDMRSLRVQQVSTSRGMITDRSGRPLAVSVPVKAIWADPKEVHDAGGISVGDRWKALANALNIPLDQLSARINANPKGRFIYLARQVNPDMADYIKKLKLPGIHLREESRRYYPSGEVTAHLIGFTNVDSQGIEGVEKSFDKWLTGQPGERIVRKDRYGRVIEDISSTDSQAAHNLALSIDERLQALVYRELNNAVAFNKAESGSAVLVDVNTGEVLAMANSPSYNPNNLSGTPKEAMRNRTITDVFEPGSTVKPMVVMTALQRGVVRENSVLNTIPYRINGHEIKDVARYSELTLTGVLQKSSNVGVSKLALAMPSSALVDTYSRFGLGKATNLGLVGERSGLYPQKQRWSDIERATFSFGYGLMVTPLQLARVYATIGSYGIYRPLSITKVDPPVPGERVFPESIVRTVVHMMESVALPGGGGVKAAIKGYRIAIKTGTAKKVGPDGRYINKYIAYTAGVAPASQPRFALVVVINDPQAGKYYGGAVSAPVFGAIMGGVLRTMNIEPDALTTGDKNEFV
- assay_text: biochemical
pEC50: −log10 of the molar value.
Listed here are compounds together with their documented pEC50.
measured_quantity: pEC50

* NCCN1CCCN(C(=O)N[C@@H](C(=O)N[C@H]2Cc3cccc(C(=O)O)c3OB2O)c2c(F)cc(O)cc2F)C1=O (single isomer, unassigned) | 3.30 to 4.52
* CCN1CCN(C(=O)NC(C(=O)N[C@H]2Cc3cccc(C(=O)O)c3OB2O)c2cc(F)c(O)cc2F)C(=O)C1=O (stereo partly drawn) | > 4.52
* NCCN1CCN(C(=O)N[C@@H](C(=O)N[C@H]2Cc3cccc(C(=O)O)c3OB2O)c2ccc(O)c(F)c2F)C(=O)C1=O (single isomer, unassigned) | > 4.52
* O=C(NC(C(=O)N[C@H]1Cc2ccc(F)c(C(=O)O)c2OB1O)c1ncc(O)cc1F)c1c(F)cc(O)c(O)c1Cl (stereo partly drawn) | 3.30 to 4.52
* NCCN1CCN(C(=O)N[C@@H](C(=O)N[C@H]2Cc3cccc(C(=O)O)c3OB2O)c2c(O)cc(O)cc2F)C(=O)C1=O (single isomer, unassigned) | > 4.52
* NCCN1CCN(C(=O)N[C@@H](C(=O)N[C@H]2Cc3cccc(C(=O)O)c3OB2O)c2cc(Cl)c(O)c(Cl)c2)C(=O)C1=O (single isomer, unassigned) | > 4.52
* NCCN1CCN(C(=O)N[C@H](C(=O)N[C@H]2Cc3cccc(C(=O)O)c3OB2O)c2c(F)cc(O)cc2F)C(=O)C1=O (single isomer, unassigned) | 3.30 to 4.52
* NCCN1CCN(C(=O)N[C@@H](C(=O)N[C@H]2Cc3ccc(F)c(C(=O)O)c3OB2O)c2c(F)cc(O)c(O)c2Cl)C(=O)C1=O (single isomer, unassigned) | > 4.52
* CCN1CCN(C(=O)NC(C(=O)N[C@H]2Cc3cccc(C(=O)O)c3OB2O)c2c(F)cc(O)cc2F)C(=O)C1=O (stereo partly drawn) | > 4.52
* CCN1CCN(C(=O)NC(C(=O)N[C@H]2Cc3cccc(C(=O)O)c3OB2O)c2cccc(CN)c2)C(=O)C1=O (stereo partly drawn) | 3.30 to 4.52
* NCCN1CCN(C(=O)N[C@H](C(=O)N[C@H]2Cc3cccc(C(=O)O)c3OB2O)c2ccc(O)cc2F)C(=O)C1=O (single isomer, unassigned) | 3.30 to 4.52
* CCN1CCN(C(=O)N[C@@H](C(=O)N[C@H]2Cc3cccc(C(=O)O)c3OB2O)c2cc(F)c(C(=O)O)cc2Cl)C(=O)C1=O (single isomer, unassigned) | > 4.52
